Measured values drawn from ChEMBL document CHEMBL1201862 for this set.

- Tested on: DU-145
- Measurement notes: NCI tumour cell line growth inhibition, 48 h
The source made the active and inactive calls. Rule as the data show it: active = GI50 up to about 1.1 µM and inactive = higher.
Readout: GI50

Task: // GI50 lookup, key: `Cc1oc2nc(N(C)C)n3nnnc3c2c1C`
Output: > 100 µM (inactive)

Task: // GI50 lookup, key: CC(=O)NC1C(OC2C(CO)OC(OCC3OC(n4ccc(N)nc4=O)C(O)C3O)C(NC(C)=O)C2O)OC(CO)C(O)C1O (stereo unspecified)
Output: > 100 µM (inactive)

Task: // GI50 lookup, key: `O=C(O)c1ccccc1-c1ccccc1C(=O)c1ccccc1`
Output: > 100 µM (inactive)

Task: // GI50 lookup, key: Nc1nc2ccc(OCC(O)CN3CCCCC3)cc2[n+]([O-])n1 (stereo unspecified)
Output: > 100 µM (inactive)

Task: // GI50 lookup, key: `COc1ccc(CCn2ccc(=O)c(O)c2C)cc1OC`
Output: 12.4 µM (inactive)

Task: // GI50 lookup, key: `COC(=O)/C=C\Sc1ccn(/C=C\C(=O)OC)c(=S)n1`
Output: > 100 µM (inactive)

Task: // GI50 lookup, key: CS(=O)(=O)Nc1ccc2c(c1)N(S(C)(=O)=O)CC2CCl (stereo unspecified)
Output: > 100 µM (inactive)

Task: // GI50 lookup, key: Fc1ccc(C2NC(=S)NC3=C2CCOc2c3ccc3ccccc23)cc1 (stereo unspecified)
Output: > 100 µM (inactive)

Task: // GI50 lookup, key: CC(C)CC(N)C(=O)O (stereo unspecified)
Output: > 100 µM (inactive)

Task: // GI50 lookup, key: COc1ncnc2c(Cl)c(C(O)c3ccccc3)c(Cl)cc12 (stereo unspecified)
Output: 60.4 µM (inactive)

Task: // GI50 lookup, key: `NC(=O)c1c2c(n3ccccc13)C(=O)c1ccccc1C2=O`
Output: > 100 µM (inactive)

Task: // GI50 lookup, key: `CCOC(=O)N1CCC2(CC1)CC(=O)N(Nc1ccccc1)C2=O`
Output: > 100 µM (inactive)

Task: // GI50 lookup, key: `O=C(c1ccccc1)N1CCN(C(=S)NC2CCCCC2)C1=S`
Output: 21.8 µM (inactive)

Task: // GI50 lookup, key: `C#CCCOC(=O)c1ccccc1OC(C)=O`
Output: > 100 µM (inactive)

Task: // GI50 lookup, key: `Cc1cc(N(CCOS(C)(=O)=O)CCOS(C)(=O)=O)ccc1/C=N/c1ccc(-c2csc(-c3ccccc3)n2)c(Cl)c1`
Output: 1.67 µM (inactive)

Task: // GI50 lookup, key: CCOP(=O)(OCC)C(Cc1ccccc1)N=C(c1ccccc1)c1ccccc1 (stereo unspecified)
Output: 20.9 µM (inactive)

* * *

- Test system: HL-60
- Measurement notes: NCI tumour cell line growth inhibition, 48 h
Calls of active or inactive are those of the source. Cut-off read from the data, not from the text of the source: active = GI50 up to about 1.1 µM and inactive = higher.
Allowed answers: class 1 = active, class 0 = inactive

Task: Recorded test outcome, item `O=C1[C@@H](O)[C@@H]2CCCC[C@@]23CCCN13`
Output: class 0

Task: Recorded test outcome, item `O=Cc1ccc(OCc2cccc(COc3ccc(/C=N\Nc4ccc([N+](=O)[O-])cc4[N+](=O)[O-])cc3)n2)cc1`
Output: class 0

Task: Recorded test outcome, item `NC(=O)c1c2c(n3ccccc13)C(=O)c1ccccc1C2=O`
Output: class 0

Task: Recorded test outcome, item `COc1ccc(NC(=O)C2=CC(=O)c3ccc(O)cc3C2=O)c(OC)c1`
Output: class 0

Task: Recorded test outcome, item C[C@@H]1C[C@]2(C[C@@H](C)[C@H]3C(C[C@@]4(C)CCC[C@@H]5C6=C[C@H](CCC34C)OC6=CC(=O)OC5(C)C)O2)OC1=O (stereo not given in full)
Output: class 0

Task: Recorded test outcome, item `Cc1cc2cc3c(cc2c(-c2ccc([N+](=O)[O-])cc2)n1)OCO3`
Output: class 0

Task: Recorded test outcome, item `CN(C)CCNC(=O)c1ccc(Cl)c2cc3ccccc3nc12`
Output: class 1

Task: Recorded test outcome, item CC1=NN(C(=O)c2ccc(C)cc2)C(=O)C1/N=N/c1ccccc1C(=O)O (stereo not given)
Output: class 0

Task: Recorded test outcome, item `O=C(NC12CC3CC(CC(C3)C1)C2)C(=O)c1c[nH]c2ccccc12`
Output: class 0

Task: Recorded test outcome, item O=C(Nc1ccc(Cl)cc1)C1C(=O)C(=O)N(c2ccc(Cl)cc2)C1=O (stereo not given)
Output: class 0

* * *

- System: OVCAR-5
- Measurement notes: NCI tumour cell line growth inhibition, 48 h
Calls of active or inactive are those of the source. No stated cut-off is given here; in the data, active = GI50 up to about 1.1 µM and inactive = higher.
Readout: GI50

Task: // GI50 lookup, key: `CC(C)(CO)NC(=O)Nc1c(C(F)(F)F)cc(-c2ccccc2)[nH]c1=O`
Output: > 100 µM (inactive)

Task: // GI50 lookup, key: COc1cc(CC2c3cc(OC)c(OC)cc3CCN2C)c(C(=O)O)cc1OC (stereo not given)
Output: > 100 µM (inactive)

Task: // GI50 lookup, key: NC(=O)C(N)CC12CC3CC(CC(C3)C1)C2 (stereo not given)
Output: 22.8 µM (inactive)

Task: // GI50 lookup, key: `Cc1ccc(C(=O)/C=C2\Nc3cccnc3NC2=O)cc1`
Output: > 100 µM (inactive)

Task: // GI50 lookup, key: `CN1/C(=N\c2ccccc2)S/C1=N/c1ccccc1`
Output: > 100 µM (inactive)

* * *

- System: SF-539
- Measurement notes: NCI tumour cell line growth inhibition, 48 h
Calls of active or inactive are those of the source. Cut-off read from the data, not from the text of the source: active = GI50 up to about 1.1 µM and inactive = higher.
Allowed answers: active, inactive

Task: Recorded test outcome, item `COc1cc(NCc2ccc3nc(N)nc(N)c3c2C)cc(OC)c1OC`
Output: active

Task: Recorded test outcome, item `Cc1[nH]n(-c2nc(O)c(C)c(=O)[nH]2)c(=O)c1CCO`
Output: inactive

Task: Recorded test outcome, item COc1cc(CC2c3cc(OC)c(OC)cc3CCN2C)c(C(=O)O)cc1OC (configuration not stated)
Output: inactive

Task: Recorded test outcome, item `C#CCCOC(=O)c1ccccc1OC(C)=O`
Output: inactive

Task: Recorded test outcome, item O=C(NC1(C(=O)O)CC1c1ccccc1)c1ccccc1 (configuration not stated)
Output: inactive

Task: Recorded test outcome, item `O=C(Oc1cc(=O)c(OC(=O)c2ccccc2)co1)c1ccccc1`
Output: inactive

Task: Recorded test outcome, item C[C@@H]1C[C@]2(C[C@@H](C)[C@H]3C(C[C@@]4(C)CCC[C@@H]5C6=C[C@H](CCC34C)OC6=CC(=O)OC5(C)C)O2)OC1=O (some centres not stated)
Output: inactive

Task: Recorded test outcome, item `CCOC(=O)NC(=O)c1cn(CC(=O)NCC(=O)NCC(=O)NCCCN2CCN(CCCNC(=O)CNC(=O)CNC(=O)Cn3cc(C(=O)NC(=O)OCC)c(=O)[nH]c3=O)CC2)c(=O)[nH]c1=O`
Output: inactive

Task: Recorded test outcome, item `CCOc1ccc(/C=C2\N=C(c3ccc([N+](=O)[O-])cc3)OC2=O)cc1`
Output: inactive

Task: Recorded test outcome, item `CCOC(=O)COC1=Nc2cc(OC)c(OC)c3nc(Cl)cc(c23)C1=O`
Output: inactive

Task: Recorded test outcome, item `CNC(=S)/C(C#N)=C(\N)N1CCN(C)CC1`
Output: inactive

Task: Recorded test outcome, item `O=C1C(Cl)=C(Cl)C(=O)C2=C1C1c3ccccc3C2c2ccccc21`
Output: inactive

Task: Recorded test outcome, item `O=C(c1cccs1)N(C(=S)OCc1ccccn1)c1ccccc1`
Output: inactive

Task: Recorded test outcome, item `O=C1CCN2CCC(=O)c3c2c(cc2ccccc32)N1`
Output: inactive

Task: Recorded test outcome, item `CCCCc1ccc(N2C(=O)c3cc([N+](=O)[O-])cnc3S2(=O)=O)cc1`
Output: inactive

Task: Recorded test outcome, item CCCCOP1(=O)CC(C)=C(Cl)C(C)(OC)C1 (configuration not stated)
Output: inactive

Task: Recorded test outcome, item `CN(C)CC/C=C1\c2ccccc2Sc2ccc(Cl)cc21`
Output: inactive

Task: Recorded test outcome, item CCOC(=O)C1(C)CCC(C(=O)OC)C1=O (configuration not stated)
Output: inactive

Task: Recorded test outcome, item `N#Cc1sc2c(c1OC(=O)c1cccs1)c(=O)n(-c1ccccc1)c(=S)n2-c1ccccc1`
Output: inactive

Task: Recorded test outcome, item `O=C(CO)CC(=O)C(=O)Nc1ccccc1`
Output: inactive

Task: Recorded test outcome, item CC12Oc3ccc4ccccc4c3CC1Cc1c(ccc3ccccc13)O2 (configuration not stated)
Output: inactive

Task: Recorded test outcome, item `O=S(=O)(/N=C(\NO)Nc1ccc(Cl)cc1)c1cccc2nsnc12`
Output: inactive

Task: Recorded test outcome, item O=c1ccn(/C=C/C(O)C(O)CO)c(=O)[nH]1 (configuration not stated)
Output: inactive

Task: Recorded test outcome, item C[C@@H](CCO)OC1OC(COC(=O)C(C)(C)C)C(OC(=O)C(C)(C)C)C(OC(=O)C(C)(C)C)C1OC(=O)C(C)(C)C (some centres not stated)
Output: inactive

Task: Recorded test outcome, item `Cc1cc(N(CCOS(C)(=O)=O)CCOS(C)(=O)=O)ccc1/C=N/c1ccc(-c2csc(-c3ccccc3)n2)c(Cl)c1`
Output: inactive

Task: Recorded test outcome, item COc1ccc(/C=C2\CCC(C)C3=C(c4ccc(OC)c(OC)c4)C(C#N)=C(N)OC32)cc1OC (configuration not stated)
Output: inactive

Task: Recorded test outcome, item `O=C1OC(=O)c2cc(S(=O)(=O)c3ccc4c(c3)C(=O)OC4=O)ccc21`
Output: inactive

Task: Recorded test outcome, item C=CCCC(O)c1cc(C)c(O)c(C)c1 (configuration not stated)
Output: inactive

Task: Recorded test outcome, item CCn1c2ccccc2c2ccc(C3C4C(=O)N(c5cccc6ccccc56)C(=O)C4ON3C(C(N)=O)c3ccccc3)cc21 (configuration not stated)
Output: inactive

Task: Recorded test outcome, item COC(OC)C(O)C1OC=CC1n1cnc2c(N)ncnc21 (configuration not stated)
Output: inactive

Task: Recorded test outcome, item CC(C)CC(N)C(=O)O (configuration not stated)
Output: inactive

Task: Recorded test outcome, item CN1C(=O)C(O)C[C@@H]1c1ccccc1 (some centres not stated)
Output: inactive
